Assay: Plasma protein binding
Conditions: % bound in human plasma
measured_quantity: Plasma Protein Binding

Per the records, this molecule ( O=C(Cn1nc(-c2ccccc2)c2ccccc21)N1CCc2ccccc2C1 ) has Plasma Protein Binding equal to > 99%

Reported Plasma Protein Binding of CC(C)(C)OC(=O)Cn1nc(-c2ccccc2)c2ccccc21 : > 99%

O=C(Cn1nc(-c2ccccc2)c2ccccc21)OC1CCC1 yielded Plasma Protein Binding of > 99%

// Plasma Protein Binding lookup, molecule = COC(=O)Cn1nc(I)c2ccccc21 , result: 98%

The molecule listed as COC(=O)Cn1nc(-c2ccccc2C)c2ccccc21 shows Plasma Protein Binding equal to < 1.0%

The reported Plasma Protein Binding of the molecule c1ccc(-c2nn(Cc3ncco3)c3ccccc23)cc1 was > 99%

According to the records, this molecule COC(=O)C(C)(C)n1nc(-c2ccccc2)c2ccccc21 displays Plasma Protein Binding of > 99%

###

Biological target: yeast (Saccharomyces cerevisiae)
Construct: Mitochondrial membranes were prepared from yeast; endogenous in cells
Assay: IC50 values and selectivity of Table 10A (target yeast, anti-target human cytochrome)
Settings: target is yeast
pIC50: −log10 of the molar value.
Label label 1 for high-side pIC50 (at or above 6) and label 0 for low-side pIC50 (below it).

Form field: pIC50 at least 6? Entry: COC(=O)Cn1nc(-c2cccnc2)c2ccccc21
label 0

hey, is pIC50 for this one >= 6? c1ccc(-c2nn(Cc3ncon3)c3ccccc23)cc1
label 0

Record Cn1nnnc1Cn1nc(-c2ccccc2)c2ccccc21 ; criterion: pIC50 no lower than 6. Met?
label 0

Check the entry c1ccc(-c2nn(Cc3ccccn3)c3ccccc23)cc1 : does pIC50 equal or exceed 6?
label 0

Confirm if pIC50 reported for the compound CS(=O)(=O)Cn1nc(-c2ccccc2)c2ccccc21 is 6 or above.
label 0

Check this compound for pIC50 at or above 6: COC(=O)Cn1nc(-c2cc(OCCCC3CCCCC3)ccc2F)c2ccccc21
label 1

Check the entry COC(=O)Cn1nc(-c2cccc(OCc3ccccc3)c2C)c2ccccc21 : does pIC50 equal or exceed 6?
label 1

Could you verify whether the entry Cn1nnc(Cn2nc(-c3cc(C(F)(F)F)ccc3F)c3ccccc32)n1 shows pIC50 of no less than 6?
label 1

Hello, I need to know if COC(=O)Cn1nc(-c2cccc(OCCC34CC5CC(CC(C5)C3)C4)c2)c2ccccc21 has measured pIC50 not below 6. Thanks!
label 1

Test whether the compound Cc1cccc2c(-c3cc(OCCCC4CCCCC4)ccc3F)nn(Cc3nnn(C)n3)c12 records pIC50 of 6 or higher.
label 1

Hi, just wondering whether Cc1nc(Cn2nc(-c3ccccc3)c3ccccc32)no1 shows pIC50 of 6 or higher.
label 0

Say whether COC(=O)Cn1nc(-c2cc(C(F)(F)F)ccc2F)c2ccccc21 shows pIC50 of 6 or more.
label 1

hey, is pIC50 for this one >= 6? COC(=O)Cn1nc(-c2cccc(OCCN(C)C)c2)c2ccccc21
label 0

Evaluate COC(=O)Cn1nc(-c2cc(OCCCC3CCCCC3)ccc2F)c2cccc(C)c21 : pIC50 at minimum 6?
label 1

Decide: pIC50 of FC(F)Cn1nc(-c2ccccc2)c2ccccc21 >= 6?
label 0

Does pIC50 meet or surpass 6 for COC(=O)Cn1nc(-c2cc(C(F)(F)F)ccc2F)c2cccc(C)c21 ?
label 1

Decide: is the reported value of pIC50 for COC(=O)Cn1nc(-c2cc(F)ccc2F)c2ccccc21 equal to or greater than 6?
label 1
